- Tested on: HT29 colon
- METHOD NOTES: NCI-60 one-dose screen, 48 h
- APPLIED CONDITIONS: 10 µM unless noted
The panel holds about 83,000 compounds, 20% with a hit somewhere; the sample as a whole holds those more often. Activity calls are given as the source filed them. Rule for the calls: active = growth percent below 10; inactive = the rest.
Classes used: active, inactive

>  <MOLECULE SMILES>
Cc1ccc(OCC(=O)Nc2ccc(Oc3ccccc3)cc2)c([N+](=O)[O-])n1

>  <ASSIGNED CLASS>
inactive

$$$$
>  <MOLECULE SMILES>
N#Cc1c(-c2ccccc2)cc(-c2ccccc2)n(CCCCCCC(=O)O)c1=O

>  <ASSIGNED CLASS>
inactive

$$$$
>  <MOLECULE SMILES>
COC(=O)[C@H](CCCCNC(=O)OCc1ccccc1)NC(=O)[C@@H](NC(=O)Nc1cc(C(F)(F)F)cc(C(F)(F)F)c1)C(C)C

>  <ASSIGNED CLASS>
active

$$$$
>  <MOLECULE SMILES>
COc1cc(C(=O)/C=C/c2cccc(Nc3ccnc4cc(Cl)ccc34)c2)cc(OC)c1OC

>  <ASSIGNED CLASS>
active

$$$$
>  <MOLECULE SMILES>
COc1c(Br)cc(C(c2cc(Br)c(OC)c(Br)c2)c2ccccc2C(=O)O)cc1Br

>  <ASSIGNED CLASS>
inactive

$$$$

---

- System: SF-539 CNS
- METHOD NOTES: NCI-60 one-dose screen, 48 h
- APPLIED CONDITIONS: 10 µM unless noted
The panel holds about 83,000 compounds, 20% with a hit somewhere; the sample as a whole holds those more often. Calls of active or inactive are those of the source. The calls were made as follows: active = growth percent below 10; inactive = the rest.
Classes used: active, inactive

>  <COMPOUND>
Nc1nc(Nc2ccccc2SSc2ccccc2Nc2nc(N)nc(C(Cl)(Cl)Cl)n2)nc(C(Cl)(Cl)Cl)n1

>  <TESTED SYSTEM>
SF-539 CNS

>  <ASSIGNED CLASS>
inactive

$$$$
>  <COMPOUND>
CCCc1n(Cc2ccc3ccccc3c2)cc[n+]1Cc1ccc2ccccc2c1

>  <TESTED SYSTEM>
SF-539 CNS

>  <ASSIGNED CLASS>
active

$$$$
>  <COMPOUND>
COc1ccc(CCN2C(=O)CCC3=C2CCCC3=O)cc1OC

>  <TESTED SYSTEM>
SF-539 CNS

>  <ASSIGNED CLASS>
inactive

$$$$
>  <COMPOUND>
O=C(N/N=C/c1cccc(O)c1O)c1ccccc1

>  <TESTED SYSTEM>
SF-539 CNS

>  <ASSIGNED CLASS>
active

$$$$
>  <COMPOUND>
O=c1c2c(=NCCCN3CCCC3)cc3c(=O)n(CCCN4CCCC4)c(=O)c4c(NCCCN5CCCC5)cc(c(O)n1CCCN1CCCC1)c2c4-3

>  <TESTED SYSTEM>
SF-539 CNS

>  <ASSIGNED CLASS>
active

$$$$
>  <COMPOUND>
CC[C@H]1CN2CCc3cc(OC)c(OC)cc3C2C[C@@H]1CC1NCCc2cc(OC)c(OC)cc21 (stereo not given in full)

>  <TESTED SYSTEM>
SF-539 CNS

>  <ASSIGNED CLASS>
active

$$$$
>  <COMPOUND>
Cc1cc2c(cc1C)[n+](Cc1ccc3ccccc3n1)cn2Cc1ccc2ccccc2n1

>  <TESTED SYSTEM>
SF-539 CNS

>  <ASSIGNED CLASS>
inactive

$$$$
>  <COMPOUND>
O=C1Nc2ccc(Cl)cc2[C@@](C#CC2CC2)(C(F)(F)F)O1

>  <TESTED SYSTEM>
SF-539 CNS

>  <ASSIGNED CLASS>
inactive

$$$$
>  <COMPOUND>
NC(=N\N=C/Cc1ccccc1)/C(N)=N\N=C\Cc1ccccc1

>  <TESTED SYSTEM>
SF-539 CNS

>  <ASSIGNED CLASS>
inactive

$$$$
>  <COMPOUND>
O=C(C(=O)c1cc(Br)ccc1O)c1cc(Br)ccc1O

>  <TESTED SYSTEM>
SF-539 CNS

>  <ASSIGNED CLASS>
inactive

$$$$
